- experimental.system: BRD4-BD2 (Homo sapiens (Human))
- assay.text: bromoKdELECT assay for binding affinity to BRD4-BD2
Kd overview

// known answers, use as guide
>>> reported_value("Cc1sc2c(c1C)C(c1ccc(Cl)cc1)=N[C@@H](CC(=O)NCCCCCCCC/C=C/C(=O)N1CCC[C@@H](n3nc(-c4ccc(Oc5ccccc5)cc4)c4c(N)ncnc43)C1)c1nnc(C)n1-2")
"500 to 2500 nM"
>>> reported_value("Cc1sc2c(c1C)C(c1ccc(Cl)cc1)=N[C@@H](CC(=O)NCCOCCOCCOc1ccc(C(=O)NC3C(C)(C)C(Oc4ccc(C#N)c(Cl)c4)C3(C)C)cc1)c1nnc(C)n1-2 (stereo partly drawn)")
"50 to 500 nM"

Please turn your attention to the following entry.
Q. # input molecule: Cc1sc2c(c1C)C(c1ccc(Cl)cc1)=N[C@@H](CC(=O)NCCOCCOCCOCCOCCOCCOCCOc1ccc(C(=O)NC3C(C)(C)C(Oc4ccc(C#N)c(Cl)c4)C3(C)C)cc1)c1nnc(C)n1-2 (stereo partly drawn) ; wanted: its Kd
A. 50 to 500 nM

Cited source: patent US20250136619A1
